Entries and their pIC50
target: human p38 kinase alpha (Homo sapiens, UniProt Q16539); construct: The coding region of the human p38a cDNA was obtained by PCR-amplification from RNA isolated from the human monocyte cell line THP.1; GST (N); made in house; host or cells: E. coli DH10B; assay: p38 kinase in vitro assay, phosphorylation of biotinylated PHAS-I with gamma 32P-ATP; format: biochemical; details: read-out: P38 alpha kinase IC50
Sequence (Q16539 whole entry): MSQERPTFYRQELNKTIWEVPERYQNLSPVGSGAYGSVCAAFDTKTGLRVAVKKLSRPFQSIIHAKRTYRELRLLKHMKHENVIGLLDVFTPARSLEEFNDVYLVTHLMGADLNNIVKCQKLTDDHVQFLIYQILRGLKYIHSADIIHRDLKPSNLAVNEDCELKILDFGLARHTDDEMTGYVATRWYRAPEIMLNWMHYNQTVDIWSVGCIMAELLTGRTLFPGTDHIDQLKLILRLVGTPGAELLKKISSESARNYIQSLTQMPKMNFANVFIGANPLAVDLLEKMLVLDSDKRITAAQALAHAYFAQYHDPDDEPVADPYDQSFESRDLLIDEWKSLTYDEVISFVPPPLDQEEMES
# pIC50 = -log10(concentration in molar units)

What value of pIC50 has been reported for the following compound? CC(C)NC(=O)N[C@H](C)c1[nH]nc(-c2ccc(F)cc2)c1-c1ccncc1 [Example B-0401]
6.34

Queued: Nc1ccc(Cc2[nH]nc(-c3ccc(Cl)cc3)c2-c2ccncc2)cc1 [Example C-116]
6.37

Queued: C[C@@H](NS(=O)(=O)c1cc(Cl)c(Cl)s1)c1[nH]nc(-c2ccc(F)cc2)c1-c1ccncc1 [Example B-0452]
6.15

Queued: O=C(NCc1[nH]nc(-c2ccc(F)cc2)c1-c1ccncc1)C1CC1 [Example B-0089]
7.40

Reference source: patent US6525059B1
